Test: Cytotoxicity against HGF cells
Format: cell-based
Settings: human
Measured CC50 by item
readout label: CC50

- CC(C)=CCc1c(O)cc(O)c2c1OC(c1ccc(O)cc1)CC2=O (centres undefined) [SOPHORAFLAVANONE B]: 190 µM
- CC(C)=CCc1c(O)cc(O)c2c(=O)c3c(CC=C(C)C)c(O)ccc3oc12 [GERONTOXANTHONE H]: 200 µM
- C=CC(C)(C)c1c(O)cc2oc3c(O)c4c(cc3c(=O)c2c1O)C=CC(C)(C)O4 [GERONTOXANTHONE B]: > 510 µM
- CC(C)=CCc1c(O)cccc1C(=O)c1c(O)cc(O)c(CC=C(C)C)c1O [CUDRAPHENONE D]: 190 µM
